# assay_remarks: Human HepG2 cell viability assay in 384 well format
# Assay type: toxicity, cell-based
# Set-up: dose 125 nL, time 70.5 hour; concentration not given beside the values
# measurement_parameters: HepG2 cells, read-out: Inhibition
measured_metric: cytotoxicity at 70.5 h (%)
// return numeric value only (unit: %, not printed)

input: Returns the measured cytotoxicity at 70.5 h for the input molecule. Input: O=C(NCC(F)F)c1ccc(S(=O)(=O)NCCc2cn[nH]c2)cc1
output: -8.61

input: Another molecule to look at: COCCN(Cc1cnn(C)c1)C(=O)C1CCC(=O)N(C2CCCC2)C1 (configuration not stated)
output: -15

input: Another molecule to look at: Cc1nccn1-c1ccc(NS(=O)(=O)c2cccnc2)cn1
output: -1.79

input: Another molecule to look at: O=C(NCC(O)c1ccc(F)c(F)c1)c1cccnc1O (configuration not stated)
output: -3.92

input: Another molecule to look at: Cc1cccc(NC(=O)C(C)Nc2cccc(CN3CCOC3=O)c2)c1 (configuration not stated)
output: -7.24

input: Another molecule to look at: COc1ccc(-n2nnc(C(N)=O)n2)cc1
output: -7.17

input: Another molecule to look at: Cc1ccc(CN(C(=O)NCc2nnc3n2CCCCC3)C2CC2)o1
output: -10.9

input: Another molecule to look at: CCc1nnc2n1CCN(C(=O)c1ccc(C(F)(F)F)nc1C)C2
output: -15.4

input: Another molecule to look at: O=c1[nH]c(N2CCOCC2)nc2c1CN(Cc1cccnc1)CC2
output: 0.495

input: Another molecule to look at: Fc1ccc(Cc2cnc(C3CCCN3)cn2)cc1 (configuration not stated)
output: 16.8

input: Another molecule to look at: Cn1cccc1C(=O)N1C[C@H]2CN(Cc3cccc(F)c3)C[C@H]2C1
output: -6.11

input: Another molecule to look at: Cc1cnn(C2CCCN(C(=O)c3ccnc(-n4ccnc4)c3)C2)c1 (configuration not stated)
output: -0.996

input: Another molecule to look at: Cc1ncoc1C(=O)N1CCOC(Cc2ccccc2)C1 (configuration not stated)
output: -6.6

input: Another molecule to look at: Cc1cncc(C(=O)N2CCNCC2C(=O)Nc2ccc(C)nc2)c1 (configuration not stated)
output: -3.64

input: Another molecule to look at: CCOCC1CN(C(=O)N(C)C)Cc2nn(C)cc21 (configuration not stated)
output: -5.53

input: Another molecule to look at: Cn1cnc2cc(C(=O)NS(=O)(=O)c3ccc(F)cc3)ccc21
output: -5.36

input: Another molecule to look at: CNc1cc(CCNS(=O)(=O)c2ccccc2)nc(-c2ccccn2)n1
output: -14.6

input: Another molecule to look at: Cc1cc(C)n(C2CN(CC(O)c3ccc(S(C)(=O)=O)cc3)C2)n1 (configuration not stated)
output: 0.799

input: Another molecule to look at: Cc1ccc(-c2noc([C@@H]3C[C@H](NC(=O)CC(C)(C)C)CN3C)n2)cc1
output: -2

input: Another molecule to look at: CCCn1ncc(CN2C[C@@H]3CCCN3C[C@H]2Cc2ccccc2)c1C
output: 23.6

input: Another molecule to look at: Cn1c(-c2ccccc2)nn(CCNS(=O)(=O)c2ccccc2Cl)c1=O
output: 0.396

input: Another molecule to look at: Cc1cc(C)n(-c2cncc(N3CCN(C(=O)C(C)C)CC3)n2)n1
output: -4.92

input: Another molecule to look at: Cc1cc(CN2CCc3cncnc3C2)on1
output: 9.54

input: Another molecule to look at: COCCOCC(=O)NC(C#N)c1c(F)cccc1Cl (configuration not stated)
output: 20.7

input: Another molecule to look at: c1cnn(CC2CN(c3ncnc4sccc34)CCO2)c1 (configuration not stated)
output: -4.77

input: Another molecule to look at: c1ccc(-c2ccc(CN3CCOC(Cn4cncn4)C3)cc2)cc1 (configuration not stated)
output: 22

input: Another molecule to look at: Cc1n[nH]c2ncc(CNC3CCN(Cc4ccccn4)CC3)cc12
output: -6.34

input: Another molecule to look at: CCn1ncnc1C(NC(=O)CC1CCN(C(C)C)CC1)C1CC1 (configuration not stated)
output: 13.7

input: Another molecule to look at: COc1cccc(-c2ncc(CN3CCOCC(O)C3)s2)c1 (configuration not stated)
output: -6.59

input: Another molecule to look at: CC(CN1CCOCC1)n1cncc1-c1cnn(Cc2ccccc2)c1 (configuration not stated)
output: -2.84

input: Another molecule to look at: CN1CCCC2(CCN(c3cccc(C(F)(F)F)n3)C2)C1=O (configuration not stated)
output: -6.46

input: Another molecule to look at: Cc1cc(CN(C)C(=O)NC2CCN(c3ncccn3)CC2)no1
output: -0.403

input: Another molecule to look at: O=C(NC1CC1)C1CCc2nnc(C3CC3)n21 (configuration not stated)
output: -10.1

input: Another molecule to look at: COCCN(Cc1ccccn1)C(=O)C1CCCCCN1C (configuration not stated)
output: -9.93

input: Another molecule to look at: NC1(c2nc(C(F)(F)F)cc(=O)[nH]2)CCCC1
output: 21.9

input: Another molecule to look at: CC(C)c1ncc2c(n1)CN(Cc1nc(-c3ccccn3)no1)CC2
output: -6.83

input: Another molecule to look at: Cn1ccnc1CN1CCC2(CC1)CN(CC1CC1)C(=O)CO2
output: 12.3

input: Another molecule to look at: CS(=O)(=O)c1ccc(NC(=O)NC2(c3ccccc3)CCC2)cc1
output: -8.88

input: Another molecule to look at: Cn1cccc1CNC(=O)N(CCO)C1CCCc2ccccc21 (configuration not stated)
output: 7.35

input: Another molecule to look at: O=C(CC1CC1)NC[C@]12COC[C@H]1CN(c1ncc(F)cn1)C2
output: -2.2

input: Another molecule to look at: CCNC(=O)[C@@H]1C[C@H](NC(=O)Cn2ccnc2)CN1Cc1ccsc1
output: 14.3

input: Another molecule to look at: COc1c(C)cnc(CN(C)C(=O)c2cccc(NC(N)=O)c2)c1C
output: -2.3

input: Another molecule to look at: CN(C)C(=O)CSc1nnc(CCNC(=O)OC(C)(C)C)o1
output: 22.7

input: Another molecule to look at: COC(=O)c1ccc2ccn(CC3CCCCO3)c(=O)c2c1 (configuration not stated)
output: -4.76

input: Another molecule to look at: CCCc1nn(Cc2csc(CC)n2)c(=O)o1
output: -4.3

input: Another molecule to look at: Cc1ccc(-n2nnc(CC(=O)N3CCOCC3)c2C)cc1
output: -10.7

input: Another molecule to look at: Cc1nc(NC(=O)NC(CS(C)(=O)=O)c2ccccc2)sc1C (configuration not stated)
output: -11.5
